Assay: JC-1 mitochondrial signal, unstimulated adipocytes – cell-based, JC-1 fluorescence, 3T3-L1 adipocytes, 24 h, 100 nL compound, profiling panel (AID 1168); further: test concentration not given here
Conditions: JC-1 mitochondrial fluorescence, higher = more signal, called active from +8 up or from −8 down
Definition: the class of an entry is the range in bottom end: < -0.3; midrange: ≥ -0.3 and < -0.06; top end: ≥ -0.06 that contains its z-score.

Consider the worked cases shown below.
INSERT INTO assay_data (molecule, label) VALUES
  ('CC(C)C[C@@H]1NC(=O)[C@@]23C(=O)N[C@@H](Cc4ccccc4)C2[C@H](C)[C@@]2(C)O[C@H]2C3/C=C/C/C=C\CNC(=O)CNC1=O (stereo partly specified)', 'midrange'),
  ('COC(=O)C(CC#Cc1ccc2c(c1)[C@]1(C(=O)N2)[C@H](C(=O)NC[C@H](O)c2ccccc2)[C@H]2C(=O)O[C@H](c3ccccc3)[C@H](c3ccccc3)N2[C@@H]1c1ccccc1OCCO)C(=O)OC', 'top end'),
  ('[N-]=[N+]=Nc1ccccc1[C@@H]1OC(c2ccc(OCCCO)cc2)=N[C@]1(CCS(=O)(=O)c1ccccc1)C(=O)NCC(O)CO (stereo partly specified)', 'midrange'),
  ('Cc1ccc(S[C@]2(C(=O)NC3CC3)CC(=O)N(C(C)C)[C@@H]2c2ccc(CO)cc2I)cc1', 'bottom end'),
  ('CN(C)CCCCNC(=O)[C@H]1C[C@H]2C(=O)NCC(=O)N2[C@H]1c1ccc(O)cc1', 'bottom end'),
  ('COc1ccc(C#Cc2ccc3c(c2)[C@]2(C(=O)N3)[C@H](C(=O)O)[C@H]3C(=O)O[C@H](c4ccccc4)[C@H](c4ccccc4)N3[C@@H]2c2ccccc2OCCO)cc1', 'top end'),
  ('CCCC#C[Si](O[C@H](CC)c1cn(Cc2ccccc2)nn1)(C(C)C)C(C)C', 'bottom end'),
  ('C=CCC(OC(C)=O)[C@@H]1[C@@H](N(Cc2ccc(-c3cccc(C(F)(F)F)c3)o2)C(=O)Cc2ccc(F)cc2)c2cc(OCCCO)ccc2N1C(=O)Cc1ccc2ccccc2c1 (stereo partly specified)', 'top end');

Please look at the following molecule next.
Sort `CC(C)C[C@@H]1NC(=O)[C@@H]2C[C@H](C(=O)NCCCCCCNC(=O)CS)[C@H](c3cccc(OCCO)c3)N2C1=O` into one of the categories.
midrange
